// provenance: the supplement of paper PMC6555819

- Test system: PPARg DBDmut IVT, anti-PPARg (DBD mutation: PPARg1 K132A/R137A, NR concentration 270 nM)
- TEST DETAILS: PBM binding z-score (relative to random genomic background probes); higher = stronger binding; sequences stand for … in GC…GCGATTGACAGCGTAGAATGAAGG
REPORTED METRIC: PBM binding z-score
One number for each entry.

The cases that follow already have their PBM binding z-score on record.
biosequence=ATATGTAGGTTATCGGGTCATTCGGTTTGCGCAT result_number=2.8
biosequence=CTCGAAAGGTCGTGCTCAGGCGAGTATACCAAAC result_number=-0.559
biosequence=TCGAGTAGGTGACCAATGGGGCATTCAGCTTTCT result_number=-1.19
biosequence=AGAACGAGGGCAAAGAGTTGATAGCACGGGTGGC result_number=-0.21
biosequence=CCTGCTAGGTCAATGGCCAGCTAAAGCAGCTCGC result_number=-1.25

Hello, I would appreciate it if you could give PBM binding z-score for each entry below.
1. CGTCAAAGTACAAGGTAACGTAACAGAAAGCAGC
2. GCGACTGGGGCATCAGCAGGTTACCTTAACTTAA
3. CCGAGTAGGTTATGGGGCATTCAAGCAACGGTGA
4. TCTCGCAGGCCAGAGGGTCACTCAAGAGGTACGG
5. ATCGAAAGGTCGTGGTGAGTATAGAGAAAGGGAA
6. CCTACTGGGGCATCAGGTCATTGATATCAACGTT
7. CCATACGGGTCAAGGTTATAGCACGGGTGGTACG
8. CGTCAAAGTTCAACTAAGGCAACGTAAAGCACGC

[out]
[-0.118, -0.949, 0.0415, -0.719, 1.03, 0.377, -0.539, -0.059]
